log K overview
- procedure-text: Hydrophobicity, log K of the compound
- Type: physicochemical
- particulars: octanol/water
Answer using only a numeral; do not append any unit.

Consider the following illustrative entries.
>>> reported_result("C[C@H](NC(=O)Nc1ccccc1F)c1ccccc1")
0.367
>>> reported_result("C[C@@H](NC(=O)Nc1ccc(F)cc1F)c1ccccc1")
0.394
>>> reported_result("C[C@H](NC(=O)Nc1cccc(Cl)c1Cl)c1ccccc1")
0.646

Query (compound): C[C@@H](NC(=O)Nc1cccc(C(F)(F)F)c1)c1ccccc1 ; field requested: log K
0.542

Which log K reading was recorded for the compound C[C@H](NC(=O)Nc1cccc(C(F)(F)F)c1)c1ccccc1 ?
0.542

====

Quick reference: Activity of the listed items.
- Tested on: Oryza sativa
- procedure-text: Effect on Oryza sativa (rice) assessed as growth rate at 0.1 uM relative to control
- Format: organism-based
- particulars: in vivo
Reply numerically in %, unit not repeated.

# annotated cases, reported Activity shown
>>> reported_result("C[C@H](NC(=O)Nc1ccccc1Br)c1ccccc1")
101
>>> reported_result("C[C@@H](NC(=O)Nc1ccccc1C(C)(C)C)c1ccccc1")
100
>>> reported_result("COc1cccc(NC(=O)N[C@@H](C)c2ccccc2)c1")
101
>>> reported_result("C[C@H](NC(=O)Nc1cc(F)cc(F)c1)c1ccccc1")
99
>>> reported_result("CCCCCc1ccc(NC(=O)N[C@H](C)c2ccccc2)cc1")
100
>>> reported_result("C[C@H](NC(=O)Nc1ccc(C(C)(C)C)cc1)c1ccccc1")
100
>>> reported_result("Cc1cc(F)ccc1NC(=O)N[C@H](C)c1ccccc1")
100
>>> reported_result("CC(C)c1ccc(NC(=O)N[C@@H](C)c2ccccc2)cc1")
98

So what's the measured Activity for this one? C[C@H](NC(=O)Nc1cccc(C(F)(F)F)c1)c1ccccc1
94

Returns the measured Activity for the input compound. Input: C[C@@H](NC(=O)Nc1cc(F)ccc1F)c1ccccc1
100

Which Activity is listed for CCCCCCCc1ccc(NC(=O)N[C@H](C)c2ccccc2)cc1 ?
100

Which Activity value is on record for C[C@@H](NC(=O)Nc1cc(Cl)ccc1Cl)c1ccccc1 ?
99

Activity lookup needed for CC(C)c1cccc(NC(=O)N[C@H](C)c2ccccc2)c1 , thanks.
74

Value lookup for Activity; key = CCCCCCc1ccc(NC(=O)N[C@H](C)c2ccccc2)cc1
100

What does the record list as Activity for C[C@H](NC(=O)Nc1cc(Cl)cc(Cl)c1)c1ccccc1 ?
99

Given the compound C[C@@H](NC(=O)Nc1ccc(Cl)cc1Cl)c1ccccc1 , what is its reported Activity?
101

Activity lookup needed for C[C@@H](NC(=O)Nc1ccc(Br)cc1)c1ccccc1 , thanks.
100

Give the measured Activity of CCCCCCc1ccc(NC(=O)N[C@@H](C)c2ccccc2)cc1 .
99

Param item = CCOC(=O)c1ccccc1NC(=O)N[C@H](C)c1ccccc1 ; retrieve measured Activity.
100

GET /values?readout=Activity&item= Cc1ccc(NC(=O)N[C@@H](C)c2ccccc2)cc1
100

Quick one: Activity for C[C@@H](NC(=O)Nc1cccc(Cl)c1Cl)c1ccccc1 ?
100

What value of Activity has been recorded for this entry: C[C@@H](NC(=O)Nc1ccc(I)cc1)c1ccccc1
100

Any idea what Activity was measured for Cc1ccc(NC(=O)N[C@H](C)c2ccccc2)c(F)c1 ?
98

For the compound CC(=O)c1ccc(NC(=O)N[C@H](C)c2ccccc2)cc1 , what Activity is on record?
96

Please report the recorded Activity for CCOC(=O)c1ccc(NC(=O)N[C@H](C)c2ccccc2)cc1 .
101

// lookup Activity for C[C@H](NC(=O)Nc1cc(F)ccc1F)c1ccccc1
100

// returns reported Activity for input C[C@H](NC(=O)Nc1ccc(Cl)cc1Cl)c1ccccc1
100

Reported Activity, compound CCCCCCCc1ccc(NC(=O)N[C@@H](C)c2ccccc2)cc1 : ____
100

Quick check: Activity of C[C@H](NC(=O)Nc1cccc(F)c1)c1ccccc1 ?
97

Query (compound): CCc1cccc(NC(=O)N[C@H](C)c2ccccc2)c1 ; field requested: Activity
97

GET /values?readout=Activity&item= CC(C)c1cccc(NC(=O)N[C@@H](C)c2ccccc2)c1
95

Using the record for C[C@H](NC(=O)Nc1ccc(F)cc1F)c1ccccc1 , report its Activity.
101

Consider the compound C[C@@H](NC(=O)Nc1cccc(F)c1)c1ccccc1 and give its measured Activity.
99

Recorded Activity for C[C@@H](NC(=O)Nc1ccc(F)cc1F)c1ccccc1 , please?
100

For the compound shown here, C[C@@H](NC(=O)Nc1cccc(C(F)(F)F)c1F)c1ccccc1 , give the reported Activity.
99

Activity lookup needed for C[C@H](NC(=O)Nc1ccc(Cl)cc1)c1ccccc1 , thanks.
103

What value of Activity has been reported for the following compound? C[C@H](NC(=O)Nc1ccc(C(F)(F)F)cc1)c1ccccc1
94

So what's the measured Activity for this one? C[C@@H](NC(=O)Nc1ccc(F)cc1)c1ccccc1
98

Recorded Activity of CCOC(=O)c1cccc(NC(=O)N[C@@H](C)c2ccccc2)c1 , please.
100

Which Activity value is on record for C[C@@H](NC(=O)Nc1ccccc1C(F)(F)F)c1ccccc1 ?
99
